# target-entity: Thymidylate synthase (Lactobacillus casei)
# Sequence (P00469 whole entry): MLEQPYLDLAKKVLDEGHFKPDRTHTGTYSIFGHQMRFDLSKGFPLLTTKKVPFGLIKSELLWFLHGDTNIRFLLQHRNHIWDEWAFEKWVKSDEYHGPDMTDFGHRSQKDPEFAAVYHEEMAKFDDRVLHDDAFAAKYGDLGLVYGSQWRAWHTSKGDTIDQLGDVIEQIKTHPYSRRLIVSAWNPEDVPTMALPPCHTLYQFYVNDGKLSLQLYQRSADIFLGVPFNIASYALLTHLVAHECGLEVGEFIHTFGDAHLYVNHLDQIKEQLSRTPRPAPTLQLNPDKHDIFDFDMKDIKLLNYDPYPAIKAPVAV
# test: Compound was evaluated for inhibitory effect on the thymidylate synthase (TS) of Lactobacillus casei
# Assay type: functional, Lacticaseibacillus casei
measured-endpoint: IC50
Quick note: unit goes after the number.

**Q:** # input compound: Nc1nc(O)c2cc(CNc3ccc(C(=O)NC(CCC(=O)O)C(=O)O)cc3)cnc2n1 (stereo unspecified) ; wanted: its IC50
**A:** 1700 nM

----------
Kindly state pKi for each of the entries shown.
# target-entity: UniProtKB P00375
# Sequence (P00375 whole entry): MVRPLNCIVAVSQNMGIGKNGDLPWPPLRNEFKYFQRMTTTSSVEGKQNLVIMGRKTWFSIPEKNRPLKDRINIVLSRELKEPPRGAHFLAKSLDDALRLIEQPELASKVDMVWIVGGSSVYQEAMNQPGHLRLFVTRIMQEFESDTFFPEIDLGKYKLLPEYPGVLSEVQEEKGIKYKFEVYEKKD
// returns pKi (minus log10 of molar concentration), number only

**Q:** // returns reported pKi for input Nc1nc(N)c2cc(CNc3ccc(C(=O)NC(CCC(=O)O)C(=O)O)cc3)cnc2n1 (stereo unspecified)
**A:** 11.44

**Q:** Requested field: pKi. Item: CN(Cc1cnc2nc(N)nc(N)c2c1)c1ccc(C(=O)NC(CCC(=O)O)C(=O)O)cc1 (stereo unspecified)
**A:** 11.28

**Q:** Requested field: pKi. Item: Cc1c(CN(C)c2ccc(C(=O)NC(CCC(=O)O)C(=O)O)cc2)cnc2nc(N)nc(N)c12 (stereo unspecified)
**A:** 11.67

**Q:** Field request: pKi | item: Nc1nc(N)c2nc(CNc3ccc(C(=O)N[C@@H](CCC(=O)O)C(=O)O)cc3)cnc2n1
**A:** 11.45

**Q:** For the compound Cc1c(CNc2ccc(C(=O)NC(CCC(=O)O)C(=O)O)cc2)cnc2nc(N)nc(N)c12 (stereo unspecified) , what pKi is on record?
**A:** 11.53

**Q:** What pKi value was documented for this compound, CCN(Cc1cnc2nc(N)nc(N)c2c1C)c1ccc(C(=O)NC(CCC(=O)O)C(=O)O)cc1 (stereo unspecified) ?
**A:** 11.58
